System: human endometrial cancer cells (HEC1A)
Assay: MTT cell viability assay, HEC1A cells
Type: cell-based
Details: Homo sapiens, HEC-1-A, 48 h, HEC1A cells, MTT, 48 h, n = 3 biological replicates; read-out: Mean IC50 (μM) HEC1A ± SD
quantity-measured: IC50 (µM)

Field: example entries. Status: answers known.
compound	IC50, µM
Cc1n(C)c2c([n+]1C)C(=O)c1c(cccc1[N+](=O)[O-])C2=O.[Br-] [Compound 7b]	0.023
COc1ccc2c(c1)C(=O)c1c(n(C)c(C)[n+]1C)C2=O [Compound 7d]	0.0256
O=C1C(Cl)=C(NCCN2CCOCC2)C(=O)c2ccccc21 [BH10, reference compound]	11.8

I. CC1=C(NCC[N+]2(C)CCOCC2)C(=O)c2ccccc2C1=O [Compound 2h]
II. Cc1n(C)c2cc3ccccc3cc2[n+]1C.[I-] [Compound 9]
III. C[N+]1(CCn2cc(Cn3c(C(F)(F)F)nc4c3C(=O)c3ccccc3C4=O)nn2)CCCCC1.[I-] [Compound 17b]
Order the items by recorded IC50; the first position goes to the largest value. Returns: the labels arranged in the requested order.
I, II, III
(I: 95.5 µM, II: 24.9 µM, III: 6.79 µM)

P. C[N+](C)(C)CCNC1=C(Cl)C(=O)c2ccccc2C1=O [Compound 2c]
Q. Cc1n(C)c2c([n+]1C)C(=O)c1cc([N+](=O)[O-])ccc1C2=O.[Br-] [Compound 7c]
Which has the higher IC50, P or Q ? Identify your pick by its label.
P

P. Cc1nc2c(n1CCC[N+]1(C)CCCCC1)C(=O)c1ccccc1C2=O.[I-] [Compound 19]
Q. Cc1n(C)c2c([n+]1C)C(=O)c1ccccc1C2=O.[Br-] [Compound 7a]
Pick one, P or Q : lowest reported IC50. Identify your pick by its label.
Q
(Q: 0.00953 µM, P: 6.35 µM)

a. C[N+]1(CCCn2cc(Cn3c(C(F)(F)F)nc4c3C(=O)c3ccccc3C4=O)nn2)CCCCC1.[I-] [Compound 17c]
b. C[N+]1(CCn2cc(Cn3c(C(F)(F)F)nc4c3C(=O)c3ccccc3C4=O)nn2)CCOCC1.[I-] [Compound 17a]
Which has the higher IC50, a or b ? Identify your pick by its label.
b
(b: 11.2 µM, a: 5.62 µM)
